Tested on: P. aeruginosa WT (PAO1)
assay_text: MIC, CLSI broth microdilution, P. aeruginosa
Assay type: cell-based
particulars: Pseudomonas aeruginosa, PAO1; CLSI broth microdilution; read-out: P. aeruginosa WT (PAO1) MIC
value_type: MIC

Below, each entry is followed by its recorded MIC result.
CN/C(=N\OC(=O)NCCC(N)=O)[C@@H]1c2c(cnn2C)[C@@H]2CN1C(=O)N2OS(=O)(=O)O (racemic) [Example 16] ... 8 to 16 µg/mL
CN/C(=N\OC(=O)NCC(N)=O)[C@@H]1c2c(cnn2C)[C@@H]2CN1C(=O)N2OS(=O)(=O)O (racemic) [Example 23] ... 8 to 16 µg/mL
CN/C(=N\OC)[C@@H]1c2c(cnn2C)[C@@H]2CN1C(=O)N2OS(=O)(=O)O [Example 4] ... > 16 µg/mL
CN/C(=N\OC(=O)NCCN)[C@@H]1c2c(cnn2C)[C@@H]2CN1C(=O)N2OS(=O)(=O)O (racemic) [Example 18] ... < 8 µg/mL
C/C(=N\O)[C@@H]1c2c(cnn2C)[C@@H]2CN1C(=O)N2OS(=O)(=O)O [Example 71] ... 8 to 16 µg/mL

Prompt: Which measured MIC value corresponds to CC(=O)O/N=C(\N)[C@@H]1c2c(cnn2C)[C@@H]2CN1C(=O)N2OS(=O)(=O)O [Example 70] ?
Response: > 16 µg/mL

Prompt: Which measured MIC value corresponds to CN/C(=N\O)[C@@H]1c2c(cnn2CCN)[C@@H]2CN1C(=O)N2OS(=O)(=O)O [Example 47] ?
Response: < 8 µg/mL

* * *

The entries below are paired with their reported MIC.
Tested on: A. baumannii (ARC3495)
Where a name gives a salt, the structure may show the parent alone.

CN/C(=N\OC(N)=O)[C@@H]1c2c(cnn2C)[C@@H]2CN1C(=O)N2OS(=O)(=O)O (racemic) ... 8 to 16 µg/mL
CN/C(=N\O)[C@@H]1c2c(cnn2C/C=N/OCCN)[C@@H]2CN1C(=O)N2OS(=O)(=O)O (racemic) ... 8 to 16 µg/mL
CCN1CCN(C(=O)NC/C(=N\O)[C@@H]2c3c(cnn3C)[C@@H]3CN2C(=O)N3OS(=O)(=O)O)C(=O)C1=O ... > 16 µg/mL

Prompt: Which measured MIC value corresponds to CN/C(=N\OC(=O)NC1CNC1)[C@@H]1c2c(cnn2C)[C@@H]2CN1C(=O)N2OS(=O)(=O)O (racemic) ?
Response: < 8 µg/mL

Prompt: Which measured MIC value corresponds to CON/C(=N\O)[C@@H]1c2c(cnn2C)[C@@H]2CN1C(=O)N2OS(=O)(=O)O (racemic) ?
Response: 8 to 16 µg/mL

Prompt: Which measured MIC value corresponds to CN/C(=N\OC(=O)NCC(N)=O)[C@@H]1c2c(cnn2C)[C@@H]2CN1C(=O)N2OS(=O)(=O)O (racemic) ?
Response: > 16 µg/mL

Prompt: Which measured MIC value corresponds to CN/C(=N\OC(=O)NCCCN)[C@@H]1c2c(cnn2C)[C@@H]2CN1C(=O)N2OS(=O)(=O)O (racemic) ?
Response: 8 to 16 µg/mL

Prompt: Which measured MIC value corresponds to Cn1ncc2c1[C@@H](C1=NOC(CO)C1)N1C[C@@H]2N(OS(=O)(=O)O)C1=O (some centres unmarked) ?
Response: > 16 µg/mL

Prompt: Which measured MIC value corresponds to CN/C(=N\OC(=O)NCC1CCNCC1)[C@@H]1c2c(cnn2C)[C@@H]2CN1C(=O)N2OS(=O)(=O)O (racemic) ?
Response: 8 to 16 µg/mL

Prompt: Which measured MIC value corresponds to CC1C([C@@H]2c3c(cnn3C)[C@@H]3CN2C(=O)N3OS(=O)(=O)O)=NOC1CO (mixture of isomers) ?
Response: > 16 µg/mL

Prompt: Which measured MIC value corresponds to Cn1ncc2c1[C@@H](/C(=N/O)NCCCCN)N1C[C@@H]2N(OS(=O)(=O)O)C1=O (racemic) ?
Response: > 16 µg/mL

Prompt: Which measured MIC value corresponds to `CN/C(=N\OC(=O)NCCNC(N)=O)[C@@H]1c2c(cnn2C)[C@@H]2CN1C(=O)N2OS(=O)(=O)O` ?
Response: 8 to 16 µg/mL

Prompt: Which measured MIC value corresponds to CN/C(=N\O)[C@@H]1c2c(cnn2C)[C@@H]2CN1C(=O)N2OS(=O)(=O)O (stereo in doubt) [Example 40, hydrogen sulfate] ?
Response: < 8 µg/mL

Prompt: Which measured MIC value corresponds to `CN/C(=N\OS(N)(=O)=O)[C@@H]1c2c(cnn2C)[C@@H]2CN1C(=O)N2OS(=O)(=O)O` ?
Response: > 16 µg/mL
